tested on: human airway epithelial cells (HAECs); assay: High-throughput sequencing (HTS) of miRNAs at four stages of differentiation of HAECs; conditions: stage D7; Table VI
Level of intensity of expression in log2 measured by high-throughput sequencing, D7 values for the substances below.
assay metric: Level of intensity of expression in log2 measured by high-throughput sequencing, D7 (log2)

- hsa-miR-16: human miRNA, SEQ ID No. 10 (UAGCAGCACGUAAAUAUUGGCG; expressed or natural sequence; listed as Homo sapiens): 5.14
- hsa-miR-34c-5p: human miRNA, SEQ ID No. 40 (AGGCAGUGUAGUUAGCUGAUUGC; expressed or natural sequence; listed as Homo sapiens): 9.21
- hsa-miR-205: human miRNA, SEQ ID No. 20 (UCCUUCAUUCCACCGGAGUCUG; expressed or natural sequence; listed as Homo sapiens): 15.23
- hsa-miR-574-3p: human miRNA, SEQ ID No. 48 (CACGCUCAUGCACACACCCACA; expressed or natural sequence; listed as Homo sapiens): 14.12
- hsa-miR-26a: human miRNA, SEQ ID No. 28 (UUCAAGUAAUCCAGGAUAGGCU; expressed or natural sequence; listed as Homo sapiens): 1.61
- hsa-miR-25: human miRNA, SEQ ID No. 27 (CAUUGCACUUGUCUCGGUCUGA; expressed or natural sequence; listed as Homo sapiens): 9.77
- hsa-miR-29c: human miRNA, SEQ ID No. 32 (UAGCACCAUUUGAAAUCGGUUA; expressed or natural sequence; listed as Homo sapiens): 14.48
- hsa-miR-30e: human miRNA, SEQ ID No. 36 (UGUAAACAUCCUUGACUGGAAG; expressed or natural sequence; listed as Homo sapiens): 8.31
- hsa-miR-449a: human miRNA, SEQ ID No. 46 (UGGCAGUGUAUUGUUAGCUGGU; expressed or natural sequence; listed as Homo sapiens): 9.69
- hsa-miR-34a: human miRNA, SEQ ID No. 38 (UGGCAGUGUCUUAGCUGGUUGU; expressed or natural sequence; listed as Homo sapiens): 11.77
- hsa-miR-92b: human miRNA, SEQ ID No. 49 (UAUUGCACUCGUCCCGGCCUCC; expressed or natural sequence; listed as Homo sapiens): 8.70
- hsa-miR-30c: human miRNA, SEQ ID No. 34 (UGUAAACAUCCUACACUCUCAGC; expressed or natural sequence; listed as Homo sapiens): 0.73
- hsa-miR-224: human miRNA, SEQ ID No. 24 (CAAGUCACUAGUGGUUCCGUU; expressed or natural sequence; listed as Homo sapiens): 11.12
- hsa-miR-130a: human miRNA, SEQ ID No. 4 (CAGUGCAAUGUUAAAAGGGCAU; expressed or natural sequence; listed as Homo sapiens): 12.51
- hsa-miR-29a: human miRNA, SEQ ID No. 31 (UAGCACCAUCUGAAAUCGGUUA; expressed or natural sequence; listed as Homo sapiens): 14.90
- hsa-miR-365: human miRNA, SEQ ID No. 41 (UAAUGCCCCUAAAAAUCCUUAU; expressed or natural sequence; listed as Homo sapiens): 0.01
- hsa-miR-22: human miRNA, SEQ ID No. 23 (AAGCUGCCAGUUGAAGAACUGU; expressed or natural sequence; listed as Homo sapiens): 9.69
- hsa-miR-30d: human miRNA, SEQ ID No. 35 (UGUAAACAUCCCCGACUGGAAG; expressed or natural sequence; listed as Homo sapiens): 9.76
- hsa-miR-429: human miRNA, SEQ ID No. 45 (UAAUACUGUCUGGUAAAACCGU; expressed or natural sequence; listed as Homo sapiens): 8.65
- hsa-miR-106b: human miRNA, SEQ ID No. 2 (UAAAGUGCUGACAGUGCAGAU; expressed or natural sequence; listed as Homo sapiens): 5.76
- hsa-miR-378: human miRNA, SEQ ID No. 43 (ACUGGACUUGGAGUCAGAAGG; expressed or natural sequence; listed as Homo sapiens): 12.53
